Measured values drawn from ChEMBL document CHEMBL4513216 for this set.

- System: Plasmodium berghei
- assay.remarks: Screen against P. berghei liver stage (PbLuc), transformed with Luciferase, at 10uM
- Assay type: functional, HepG2
- condition.details: tested at 10 uM
Screen size: about 69,000 compounds; about 8,600 (12%) showed an effect of 50% or more. Shown is part of a subset that was picked to be rich in strong results.
So basically, if INHIBITION comes in under 30% it's 1, and if it's 30% or more it's 0.

Threshold test, INHIBITION < 30%: COc1ccc(-c2csc(N)c2C#N)cc1 0

Repeat with O=C(NCCCn1cccn1)N1CCCC1c1ccsc1 (stereo not drawn) 1

Note, next up: CC(=O)N1CCC(c2nc3ccc(NC4CCC4)cn3n2)CC1 1
